From: patent US12522582B2

# TARGET_ENTITY: hCAII (Homo sapiens (Human), UniProt P00918)
# PROTOCOL: Carbonic Anhydrase (Esterase) Biochemical Assay, hCAII
# RECORDED_CONDITIONS: read-out: IC50-hCAII; 4-nitrophenyl acetate hydrolysis, 60 min

{"columns": ["COMPOUND", "TARGET_ENTITY", "RELATION_SIGN", "IC50 / µM"],
 "data": [
  ["NS(=O)(=O)c1ccc2c(c1)N(C(=O)C1Cc3ccc(-c4cnccn4)cc3C1)CC2 (stereo not shown)", "hCAII (Homo sapiens (Human), UniProt P00918)", "≥", 25],
  ["NS(=O)(=O)c1cc2c(cc1Cl)CCN2C(=O)C1Cc2ccc(-c3ccccn3)cc2C1 (stereo not shown)", "hCAII (Homo sapiens (Human), UniProt P00918)", "≥", 25],
  ["NS(=O)(=O)c1cc2c(cc1F)C[C@H](C(F)F)N2C(=O)[C@@H]1Cc2ccc(-c3ccccn3)cc2C1", "hCAII (Homo sapiens (Human), UniProt P00918)", "=", 2.46],
  ["NS(=O)(=O)c1cc2c(cc1F)C[C@@H](C(F)F)N2C(=O)[C@@H]1Cc2ccc(-c3ccccn3)cc2C1", "hCAII (Homo sapiens (Human), UniProt P00918)", "=", 7.42]
]}

====

# PROTOCOL: MT-4 CC50 Assay (CellTiter Glo)
# Assay type: cell-based
# RECORDED_CONDITIONS: human, MT-4 cells, luminescence, read-out: CC50-MT4

{"columns": ["COMPOUND", "CC50 at 5 days"],
 "data": [
  ["C[C@@H]1Cc2ccc(S(N)(=O)=O)cc2N1C(=O)[C@@H]1Cc2ccc(-c3ccccn3)cc2C1", "≥ 50 µM"],
  ["NS(=O)(=O)c1cc2c(cc1F)CCN2C(=O)C1Cc2ccc(-c3ccccn3)cc2C1 (stereo not shown)", "42.3 µM"],
  ["Cc1cccc(-c2ccc3c(c2)C[C@H](C(=O)N2CCc4ccc(S(N)(=O)=O)cc42)C3)n1", "36.9 µM"],
  ["C[S@](=N)(=O)c1cc2c(cc1F)CCN2C(=O)[C@@H]1Cc2ccc(-c3ccccn3)cc2C1", "≥ 10 µM"],
  ["Cc1cc2c(cc1S(N)(=O)=O)N(C(=O)[C@@H]1Cc3ccc(-c4ccccn4)cc3C1)[C@H](C)C2", "≥ 10 µM"],
  ["NS(=O)(=O)c1ccc2c(c1)N(C(=O)C1Cc3ccc(-n4cccn4)cc3C1)CC2 (stereo not shown)", "≥ 50 µM"],
  ["C[C@@H]1Cc2cc(F)c(S(N)(=O)=O)cc2N1C(=O)[C@H]1Cc2cc(-c3ccccn3)ccc2O1", "≥ 10 µM"]
]}

====

# System: human cryopreserved hepatocytes
# PROTOCOL: Stability Assay in Cryopreserved Hepatocytes (human)
# Assay type: in vitro ADME
# RECORDED_CONDITIONS: 1 μM, calculated from half-life using the well-stirred model
Flag rule - Predicted human hepatic clearance less than 3 mL/min/kg flags 1 (yes); the remaining entries get 0 (no).

{"columns": ["COMPOUND", "TARGET_ENTITY", "CLASS"],
 "data": [
  ["NS(=O)(=O)c1cc2c(cc1F)C[C@@H](C(F)F)N2C(=O)[C@@H]1Cc2ccc(-c3ccccn3)cc2C1", "human cryopreserved hepatocytes", "0 (no)"],
  ["NS(=O)(=O)c1cc2c(cc1F)C[C@@H](CF)N2C(=O)[C@@H]1Cc2ccc(-c3ccccn3)cc2C1", "human cryopreserved hepatocytes", "1 (yes)"],
  ["NS(=O)(=O)c1ccc2c(c1)N(C(=O)[C@@H]1Cc3ccc(-c4ccncc4)cc3C1)CC2", "human cryopreserved hepatocytes", "0 (no)"],
  ["NS(=O)(=O)c1cc2c(cc1F)CCN2C(=O)[C@@H]1Cc2ccc(-c3ccccn3)cc2O1", "human cryopreserved hepatocytes", "1 (yes)"],
  ["C[C@H]1Cc2ccc(S(N)(=O)=O)cc2N1C(=O)[C@@H]1Cc2ccc(-c3ccccn3)cc2C1 (single isomer, unassigned)", "human cryopreserved hepatocytes", "1 (yes)"],
  ["NS(=O)(=O)c1cc2c(cc1F)C[C@H](CF)N2C(=O)[C@@H]1Cc2ccc(-c3ccccn3)cc2C1", "human cryopreserved hepatocytes", "1 (yes)"],
  ["C[C@H]1c2ccc(-c3ccccn3)cc2C[C@@H]1C(=O)N1C[C@@H](C(F)(F)F)c2cc(F)c(S(N)(=O)=O)cc21", "human cryopreserved hepatocytes", "1 (yes)"],
  ["NS(=O)(=O)c1cc2c(cc1F)CCN2C(=O)C1Cc2ccc(-c3ccccn3)cc2O1 (stereo not shown)", "human cryopreserved hepatocytes", "1 (yes)"],
  ["NS(=O)(=O)c1ccc2c(c1)N(C(=O)[C@@H]1Cc3ccc(-c4cnccn4)cc3C1)CC2", "human cryopreserved hepatocytes", "0 (no)"],
  ["NS(=O)(=O)c1cc2c(cc1F)C[C@H](C(F)F)N2C(=O)[C@@H]1Cc2ccc(-c3ccccn3)cc2C1", "human cryopreserved hepatocytes", "0 (no)"],
  ["NS(=O)(=O)c1ccc2c(c1)N(C(=O)[C@@H]1Cc3ccc(-c4ccncn4)cc3C1)CC2", "human cryopreserved hepatocytes", "0 (no)"],
  ["C[C@@H]1Cc2cc(Cl)c(S(N)(=O)=O)cc2N1C(=O)[C@@H]1Cc2ccc(-c3ccccn3)cc2C1", "human cryopreserved hepatocytes", "1 (yes)"],
  ["C[C@@H]1Cc2ccc(S(N)(=O)=O)cc2N1C(=O)[C@@H]1Cc2ccc(-c3ccccn3)cc2C1", "human cryopreserved hepatocytes", "1 (yes)"],
  ["C[C@@H]1Cc2cc(F)c(S(N)(=O)=O)cc2N1C(=O)[C@@H]1Cc2ccc(-c3ccccn3)cc2C1", "human cryopreserved hepatocytes", "1 (yes)"],
  ["C[C@H]1Cc2cc(F)c(S(N)(=O)=O)cc2N1C(=O)[C@H]1Cc2ccc(-c3ccccn3)cc2C1", "human cryopreserved hepatocytes", "0 (no)"],
  ["NS(=O)(=O)c1cc2c(cc1F)CCN2C(=O)[C@@H]1Cc2ccc(-c3ccccn3)cc2C1", "human cryopreserved hepatocytes", "0 (no)"]
]}
